# Test system: Human aortic endothelial cells (HAEC)
# procedureDetails: LD50 (toxicity to cells; visual signs of toxicity scored in the VCAM-1 assay)
# Type: cell-based
readoutKind: LD50 at (µM)

compound=CC(C)(Sc1cc(C(C)(C)C)c(O)c(C(C)(C)C)c1)Sc1cc(C(C)(C)C)c(OC[C@@H](O)[C@@H](O)[C@@H](O)CO)c(C(C)(C)C)c1 readoutnumber=25.0
compound="CC(C)(Sc1cc(C(C)(C)C)c(O)c(C(C)(C)C)c1)Sc1cc(C(C)(C)C)c(OCC(O)COC(=O)C(O)C(O)C(O)C(O)CO)c(C(C)(C)C)c1 (stereo not shown)" readoutnumber=50.0
compound=CN(C)C(=O)c1ccc(CSc2cc(C(C)(C)C)c(O)c(C(C)(C)C)c2)cc1 readoutnumber=50.0
compound="CC(C)(Sc1cc(C(C)(C)C)c(O)c(C(C)(C)C)c1)Sc1cc(C(C)(C)C)c(OCC(O)CS(=O)(=O)O)c(C(C)(C)C)c1 (stereo not shown)" readoutnumber=50.0

Every entry's value here was drawn from patent US20050171028A1.
